Molecular target: T1, cynomolgus galectin-10-His, YRT isoform (cynomolgus)
T1 construct: not shown: His tag
T1 chain: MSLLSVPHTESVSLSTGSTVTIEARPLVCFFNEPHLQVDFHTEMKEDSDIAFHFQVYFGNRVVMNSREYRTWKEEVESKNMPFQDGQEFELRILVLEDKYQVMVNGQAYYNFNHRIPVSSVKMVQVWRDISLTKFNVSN
Test: ELISA, Gal10-His coated at 1 ug/mL, VHH titrated, anti-Myc-HRP
Kindly supply the reported pEC50 values for the records listed here.
// pEC50: -log10(molar conc.)

# input Could you tell me which pEC50 is on file for VHH clone 13C06 (VHH, Purified VHH-Myc-His from E. coli; not shown: Myc and His tags of the phagemid vector) VHH: QLQLVESGGGLVQAGGSLRLSCAASSSSYSMGWFRQAPGKEREFVATISWSGGFYYDDSVKGRFTVSRDNAKNTVYLQMNSLKPEDTAVYYCAAGTRFSFSYREYHYWGQGTQVTVSS ?
# output 7.79

# input Could you tell me which pEC50 is on file for VHH clone 14E10 (VHH, Purified VHH-Myc-His from E. coli; not shown: Myc and His tags of the phagemid vector) VHH: ELQLVESGGGLVQAGGSLRLSCAASEGTFRPYAMGWFRQAPRKEREFVAVISLSGAYTYNVNAVKGRFTISRDNAKNTVYLQMNSLTPEDTAIYYCGASRTYYRTDESTYEYWGQGTQVTVSS ?
# output 7.80

# input Could you tell me which pEC50 is on file for VHH clone 13D12 (VHH, Purified VHH-Myc-His from E. coli; not shown: Myc and His tags of the phagemid vector) VHH: QLQLVESGGGLVQAGDSLRLSCAASGRTFSSYHMMWFRQAPGKEREFVAALAWRGGTYCANSVKGRCTISRDNAQDTVYLQMNSLKPEDTAVYFCAASRRYVFDPSAMDYWAKGTLVTVSS ?
# output 6.92

# input Could you tell me which pEC50 is on file for VHH clone 13H07 (VHH, Purified VHH-Myc-His from E. coli; not shown: Myc and His tags of the phagemid vector) VHH: QLQLVESGGGLVQAGGSLRLSCVASGRTFSTYAMDWFRQAPGKEREFVAAISWHSAIYYADAVKGRFTISRDNGKNTMYLQMNNLKPEDTAVYFCAAALRYRFNPSAMEYWGKGTLVTVSS ?
# output 8.89

# input Could you tell me which pEC50 is on file for VHH clone 13C10 (VHH, Purified VHH-Myc-His from E. coli; not shown: Myc and His tags of the phagemid vector) VHH: QLQLVESGGGLVQAGGSLKLSCAASGRTFNPYTMGWFRQAPGKEREFVAVVSSGGGTYYANSVKGRFTISRDNAKATVYLQMNSLKPEDTAVYYCAAGSIFRWSPMSYDYWGQGTQVTVSS ?
# output 6.73

# input Could you tell me which pEC50 is on file for VHH clone 14F10 (VHH, Purified VHH-Myc-His from E. coli; not shown: Myc and His tags of the phagemid vector) VHH: EVQLVESGGGLVQAGDSLRLSCAASGRTFSGYAVGWFRQAPGKEREFVTIISWNGGTHYADSVKGRFAISRDNAKNTVYLQMNNLKPEDTAVYYCAVSPKYYFSPETYNYWGQGTQVTVSS ?
# output 8.52

# input Could you tell me which pEC50 is on file for VHH clone 13G12 (VHH, Purified VHH-Myc-His from E. coli; not shown: Myc and His tags of the phagemid vector) VHH: QLQVVESGGGLVQAGGSLRLSCAASSSAYSMGWFRQAPGKEREFVAVISWSGGSHYDDSVKGRFTISRDGAKNTVYLQMNSLKPEDTAVYYCAVGTLYSFRYRDYDYWGQGTQVTVSS ?
# output 8.51

# input Could you tell me which pEC50 is on file for VHH clone 13E09 (VHH, Purified VHH-Myc-His from E. coli; not shown: Myc and His tags of the phagemid vector) VHH: QVQVQESGGGLVQAGNSLRLSCAASGRTFSSYHMMWFRQAPGKEREFVAAIAWRGGTYCANSVKGRCTISRDNAKDTVYLQMNSLKPEDTAVYFCAASLRYVFDPSAMDYWGKGTLVTVSS ?
# output 7.17

# input Could you tell me which pEC50 is on file for VHH clone 13A05 (VHH, Purified VHH-Myc-His from E. coli; not shown: Myc and His tags of the phagemid vector) VHH: QVQLVESGGGLVQAGGSLRLSCAASSSSYSMSWFRQAPGKEREFVAIISWSGGTYYDDSVKGRFTVSRDNAKNTVYLQMNSLKPEDTAVYYCAAGTQFSFSYREYDYWGQGTQVTVSS ?
# output 7.18

# input Could you tell me which pEC50 is on file for VHH clone 13C07 (VHH, Purified VHH-Myc-His from E. coli; not shown: Myc and His tags of the phagemid vector) VHH: QLQVVESGGGLVQAGGSLRLSCAASSSAYSMAWFRQAPGKEREFVAAITWSGGSHHDDSVKGRFTISRDGAKNTVYLQMNSLKPEDTAVYYCAVGTLYSFSYRDYDYWGQGTQVTVSS ?
# output 7.48

Source listed as patent US20190367619A1.
